System: Burkholderia pseudomallei
Experiment: Activation of Burkholderia pseudomallei gamma carbonic anhydrase assessed as Kcat at 10 uM incubated for 15 mins prior to testing by stopped flow CO2 hydration assay
Listed here: items and their measured kcat.

{"STRUCTURE_SMILES": "N[C@H](Cc1c[nH]cn1)C(=O)O", "kcat": "2.16 ×10⁶ /s"}
{"STRUCTURE_SMILES": "N[C@H](Cc1c[nH]c2ccccc12)C(=O)O", "kcat": "2.44 ×10⁶ /s"}
{"STRUCTURE_SMILES": "NCc1ccccn1", "kcat": "8.61 ×10⁵ /s"}
{"STRUCTURE_SMILES": "NCCc1ccccn1", "kcat": "2.51 ×10⁶ /s"}
{"STRUCTURE_SMILES": "N[C@@H](Cc1ccc(O)c(O)c1)C(=O)O", "kcat": "2.31 ×10⁶ /s"}
{"STRUCTURE_SMILES": "N[C@@H](Cc1c[nH]cn1)C(=O)O", "kcat": "6.91 ×10⁵ /s"}
{"STRUCTURE_SMILES": "N[C@@H](Cc1c[nH]c2ccccc12)C(=O)O", "kcat": "1.15 ×10⁶ /s"}
{"STRUCTURE_SMILES": "N[C@H](Cc1ccc(O)c(O)c1)C(=O)O", "kcat": "1.02 ×10⁶ /s"}
{"STRUCTURE_SMILES": "N[C@@H](Cc1ccc(O)cc1)C(=O)O", "kcat": "1.38 ×10⁶ /s"}
{"STRUCTURE_SMILES": "NCCc1ccc(O)c(O)c1", "kcat": "3.13 ×10⁶ /s"}
{"STRUCTURE_SMILES": "N[C@H](Cc1ccc(O)cc1)C(=O)O", "kcat": "5.8 ×10⁵ /s"}
{"STRUCTURE_SMILES": "NCCc1c[nH]c2ccc(O)cc12", "kcat": "1.62 ×10⁶ /s"}
{"STRUCTURE_SMILES": "NCCN1CCNCC1", "kcat": "2.96 ×10⁶ /s"}
{"STRUCTURE_SMILES": "NCCc1c[nH]cn1", "kcat": "1.51 ×10⁶ /s"}
{"STRUCTURE_SMILES": "Nc1ccc(C[C@H](N)C(=O)O)cc1", "kcat": "3.45 ×10⁶ /s"}
{"STRUCTURE_SMILES": "NCCN1CCOCC1", "kcat": "3.1 ×10⁶ /s"}
{"STRUCTURE_SMILES": "CNC[C@H](O)c1ccc(O)c(O)c1", "kcat": "2.92 ×10⁶ /s"}

====

Molecular target: Carbonic anhydrase (Methanosarcina thermophila)
Sequence (whole entry): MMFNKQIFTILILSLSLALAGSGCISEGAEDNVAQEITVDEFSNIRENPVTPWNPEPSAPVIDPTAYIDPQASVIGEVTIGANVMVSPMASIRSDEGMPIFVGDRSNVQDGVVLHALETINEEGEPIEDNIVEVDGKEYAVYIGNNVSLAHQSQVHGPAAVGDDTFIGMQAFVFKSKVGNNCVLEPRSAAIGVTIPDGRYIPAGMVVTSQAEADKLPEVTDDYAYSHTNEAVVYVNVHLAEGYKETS
Assay: Activation of recombinant Methanosarcina thermophila gamma carbonic anhydrase at 10 uM incubated for 15 mins prior to testing by stopped flow CO2 hydration assay
Listed here: items and their measured KA.

{"STRUCTURE_SMILES": "N[C@H](Cc1ccc(O)c(O)c1)C(=O)O", "KA / µM": 37}
{"STRUCTURE_SMILES": "CNC[C@H](O)c1ccc(O)c(O)c1", "KA / µM": 39}
{"STRUCTURE_SMILES": "N[C@@H](Cc1ccc(O)cc1)C(=O)O", "KA / µM": 24}
{"STRUCTURE_SMILES": "NCCc1ccccn1", "KA / µM": 24}
{"STRUCTURE_SMILES": "NCCN1CCNCC1", "KA / µM": 10.1}
{"STRUCTURE_SMILES": "N[C@@H](Cc1c[nH]c2ccccc12)C(=O)O", "KA / µM": 38}
{"STRUCTURE_SMILES": "NCCc1c[nH]cn1", "KA / µM": 63}
{"STRUCTURE_SMILES": "NCCc1c[nH]c2ccc(O)cc12", "KA / µM": 38}
{"STRUCTURE_SMILES": "N[C@H](Cc1c[nH]cn1)C(=O)O", "KA / µM": 46}
{"STRUCTURE_SMILES": "NCCN1CCOCC1", "KA / µM": 45}
{"STRUCTURE_SMILES": "N[C@H](Cc1c[nH]c2ccccc12)C(=O)O", "KA / µM": 33}
{"STRUCTURE_SMILES": "NCCc1ccc(O)c(O)c1", "KA / µM": 54}
{"STRUCTURE_SMILES": "Nc1ccc(C[C@H](N)C(=O)O)cc1", "KA / µM": 72}
{"STRUCTURE_SMILES": "N[C@@H](Cc1c[nH]cn1)C(=O)O", "KA / µM": 68}
{"STRUCTURE_SMILES": "NCc1ccccn1", "KA / µM": 11.4}
{"STRUCTURE_SMILES": "N[C@@H](Cc1ccc(O)c(O)c1)C(=O)O", "KA / µM": 39}

====

Listed here: items and their measured log10 of KA.
Test system: Burkholderia pseudomallei
Experiment: Activation of Burkholderia pseudomallei gamma carbonic anhydrase at 10 uM incubated for 15 mins prior to testing by stopped flow CO2 hydration assay
READOUT: log10 of KA (log10 of the value in µM)

{"STRUCTURE_SMILES": "N[C@H](Cc1ccc(O)c(O)c1)C(=O)O", "log10 of KA": -0.01}
{"STRUCTURE_SMILES": "NCCc1ccc(O)c(O)c1", "log10 of KA": -1.85}
{"STRUCTURE_SMILES": "NCCc1c[nH]c2ccc(O)cc12", "log10 of KA": -1.00}
{"STRUCTURE_SMILES": "N[C@H](Cc1c[nH]c2ccccc12)C(=O)O", "log10 of KA": -1.28}
{"STRUCTURE_SMILES": "Nc1ccc(C[C@H](N)C(=O)O)cc1", "log10 of KA": -2.05}
{"STRUCTURE_SMILES": "NCc1ccccn1", "log10 of KA": 0.37}
{"STRUCTURE_SMILES": "NCCc1ccccn1", "log10 of KA": -1.47}
{"STRUCTURE_SMILES": "N[C@@H](Cc1c[nH]c2ccccc12)C(=O)O", "log10 of KA": -0.37}
{"STRUCTURE_SMILES": "N[C@H](Cc1ccc(O)cc1)C(=O)O", "log10 of KA": 1.52}
{"STRUCTURE_SMILES": "NCCN1CCOCC1", "log10 of KA": -1.82}
{"STRUCTURE_SMILES": "CNC[C@H](O)c1ccc(O)c(O)c1", "log10 of KA": -1.72}
{"STRUCTURE_SMILES": "NCCc1c[nH]cn1", "log10 of KA": -0.92}
{"STRUCTURE_SMILES": "N[C@@H](Cc1ccc(O)cc1)C(=O)O", "log10 of KA": -0.70}
{"STRUCTURE_SMILES": "N[C@@H](Cc1c[nH]cn1)C(=O)O", "log10 of KA": 1.39}
{"STRUCTURE_SMILES": "N[C@@H](Cc1ccc(O)c(O)c1)C(=O)O", "log10 of KA": -1.14}
{"STRUCTURE_SMILES": "N[C@H](Cc1c[nH]cn1)C(=O)O", "log10 of KA": -1.07}
{"STRUCTURE_SMILES": "NCCN1CCNCC1", "log10 of KA": -1.74}
